Target: ITK (Homo sapiens, UniProt Q08881)
Construct: purchased Invitrogen PV3875
Experiment: ITK enzyme assay (Caliper or LCMS peptide phosphorylation)
Format: biochemical
Settings: purified ITK (Invitrogen PV3875), 20 μM ATP, Ki by Morrison's quadratic equation
pKi: −log10 of the molar value.
# binarize pKi: threshold 8 inclusive, high side yes (1), low side no (0)

Check this molecule for pKi at or above 8: N#Cc1cccc(Cn2cc(NC(=O)c3n[nH]c4c3CC(c3cn[nH]c3)CC4)cn2)c1 (single isomer, unassigned) [Example 2a]
no (0)

Check this molecule for pKi at or above 8: CC1(C)CCc2c(C(=O)Nc3cnn(C(CCN4CC(F)(F)C4)c4ccccc4)c3)n[nH]c2C1 (single isomer, unassigned) [Example 121b]
yes (1)

Check this molecule for pKi at or above 8: CC1(C)CCc2c(C(=O)Nc3cnn(C(CO)c4ccccc4)c3)n[nH]c2C1 (single isomer, unassigned) [Example 53a]
yes (1)

---

Biological target: ITK (Homo sapiens)
Listed here: items and their measured pKi.
Please treat pKi as minus the base-10 logarithm of the molar concentration.

Would you please look over these solved cases?
>>> df
                                   compound  property_name  test_result
0  CCC1(C)CCc2c(C(=O)Nc3cnn(Cc4ccccc4)c3)n[nH]c2C1 (single isomer, unassigned) [Example 56b]            pKi         7.89
1  N#Cc1cccc(Cn2cc(NC(=O)c3n[nH]c4c3CCC(O)C4)cn2)c1 (single isomer, unassigned) [Example 5b]            pKi         6.42
2  CC1(C)Cc2[nH]nc(C(=O)Nc3cnn(Cc4ccccc4)c3)c2CC1O (single isomer, unassigned) [Example 70a]            pKi         7.96
3  CC1(C)CCc2c(C(=O)Nc3cnn(C(c4ccccc4)C4(F)CCNCC4)c3)n[nH]c2C1 (single isomer, unassigned) [Example 44b]            pKi         9.70
4  Cn1cc(C(c2ccccc2)n2cc(NC(=O)c3n[nH]c4c3CC3CC3C4)cn2)cn1 (single isomer, unassigned) [Example 27c]            pKi         7.35

Item: CC1(C)CCc2c(C(=O)Nc3cnn(C(c4ccccc4)C4CC[N+](C)([O-])CC4)c3)n[nH]c2C1 (single isomer, unassigned) [Example 140b] Test system: ITK (Homo sapiens) Read-out: pKi Value: ?
7.85

---

Sequence of the target: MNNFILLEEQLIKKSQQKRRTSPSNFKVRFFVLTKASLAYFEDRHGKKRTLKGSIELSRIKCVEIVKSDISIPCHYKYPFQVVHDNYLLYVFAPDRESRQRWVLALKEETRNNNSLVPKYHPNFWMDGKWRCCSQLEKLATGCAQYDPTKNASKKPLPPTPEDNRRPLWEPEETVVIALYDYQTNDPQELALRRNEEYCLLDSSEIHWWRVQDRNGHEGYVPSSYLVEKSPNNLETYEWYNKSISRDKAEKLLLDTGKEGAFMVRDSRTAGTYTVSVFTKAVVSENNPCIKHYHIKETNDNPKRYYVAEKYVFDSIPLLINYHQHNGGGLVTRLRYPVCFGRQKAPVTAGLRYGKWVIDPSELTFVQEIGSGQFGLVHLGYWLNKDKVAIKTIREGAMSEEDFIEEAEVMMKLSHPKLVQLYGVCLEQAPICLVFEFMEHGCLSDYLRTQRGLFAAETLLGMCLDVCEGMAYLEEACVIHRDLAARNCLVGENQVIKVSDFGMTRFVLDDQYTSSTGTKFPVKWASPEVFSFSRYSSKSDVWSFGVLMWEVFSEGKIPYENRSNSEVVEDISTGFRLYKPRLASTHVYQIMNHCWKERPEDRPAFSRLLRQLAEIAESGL
Listed here: items and their measured log10 of Ki.
Note: values are log10 of Ki expressed in nM.

Would you please look over these solved cases?
>>> df
                                   molecule  test_result
0  CC1(C)CCc2c(C(=O)Nc3cnn(C(c4cccnc4)C4CCOCC4)c3)n[nH]c2C1 (single isomer, unassigned) [Example 88b]        -0.15
1  CC1(C)CCc2c(C(=O)Nc3cnn(C(c4ccccc4)C4CN(CCF)C4)c3)n[nH]c2C1 (stereo not shown) [Example 75b]        -0.52

Look up log10 of Ki for this molecule: Cn1cc(C(c2ccccc2)n2cc(NC(=O)c3n[nH]c4c3C3CC3CC4)cn2)cn1 (single isomer, unassigned) [Example 35c]
2.34

Look up log10 of Ki for this molecule: CC(c1nccs1)n1cc(NC(=O)c2n[nH]c3c2CCC(C)(C)C3)cn1 (single isomer, unassigned) [Example 92a]
0.85

Look up log10 of Ki for this molecule: CCC(c1cnn(CC)c1)n1cc(NC(=O)c2n[nH]c3c2CCC(C)(C)C3)cn1 (single isomer, unassigned) [Example 99a]
0.60

---

Target: ITK (Homo sapiens, UniProt Q08881)
Sequence (Q08881 1-620): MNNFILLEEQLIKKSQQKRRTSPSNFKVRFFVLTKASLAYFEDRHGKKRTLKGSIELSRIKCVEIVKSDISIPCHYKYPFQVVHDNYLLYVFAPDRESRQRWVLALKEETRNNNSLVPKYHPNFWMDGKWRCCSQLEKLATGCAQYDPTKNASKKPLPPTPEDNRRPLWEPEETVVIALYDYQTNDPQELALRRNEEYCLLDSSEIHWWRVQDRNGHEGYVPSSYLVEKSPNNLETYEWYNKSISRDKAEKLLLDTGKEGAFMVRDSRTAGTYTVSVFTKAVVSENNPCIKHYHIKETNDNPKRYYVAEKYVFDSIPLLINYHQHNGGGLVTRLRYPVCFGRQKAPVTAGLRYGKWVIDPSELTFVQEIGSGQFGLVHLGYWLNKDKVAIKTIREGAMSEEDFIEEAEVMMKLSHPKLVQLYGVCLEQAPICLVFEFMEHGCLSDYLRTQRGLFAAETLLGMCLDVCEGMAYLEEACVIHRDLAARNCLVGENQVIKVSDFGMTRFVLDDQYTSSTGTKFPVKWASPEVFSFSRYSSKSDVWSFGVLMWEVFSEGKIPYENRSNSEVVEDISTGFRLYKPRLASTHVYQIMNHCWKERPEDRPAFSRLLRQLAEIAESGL
Listed here: items and their measured log10 of Ki.
Note: values are log10 of Ki expressed in nM.

Item: CC1(O)CCc2c(C(=O)Nc3cnn(Cc4ccccc4)c3)n[nH]c2C1 (single isomer, unassigned) [Example 51a] Test system: ITK (Homo sapiens, UniProt Q08881) Read-out: log10 of Ki Value: ?
2.20

Item: CC1(C)CCc2c(C(=O)Nc3cnn(C(c4ccccc4)C4CCOCC4)c3)n[nH]c2C1 (single isomer, unassigned) [Example 113b] Test system: ITK (Homo sapiens, UniProt Q08881) Read-out: log10 of Ki Value: ?
-0.52

Item: CN(C)CC(c1ccccc1)n1cc(NC(=O)c2n[nH]c3c2CC2CC2(C)C3)cn1 (single isomer, unassigned) [Example 68b] Test system: ITK (Homo sapiens, UniProt Q08881) Read-out: log10 of Ki Value: ?
0.60

Item: Cc1nnc(C(C)n2cc(NC(=O)c3n[nH]c4c3CCC(C)(C)C4)cn2)o1 (single isomer, unassigned) [Example 101a] Test system: ITK (Homo sapiens, UniProt Q08881) Read-out: log10 of Ki Value: ?
1.61

Item: CC12Cc3[nH]nc(C(=O)Nc4cnn(C(c5cccnc5)C5CC[S+]([O-])CC5)c4)c3CC1C2 (single isomer, unassigned) [Example 146c] Test system: ITK (Homo sapiens, UniProt Q08881) Read-out: log10 of Ki Value: ?
-1.00

Item: CN1CC(C(c2ccccc2)n2cc(NC(=O)c3n[nH]c4c3CCC(C)(C)C4)cn2)CN(C)C1=O (single isomer, unassigned) [Example 129b] Test system: ITK (Homo sapiens, UniProt Q08881) Read-out: log10 of Ki Value: ?
0.78

---

Target sequence: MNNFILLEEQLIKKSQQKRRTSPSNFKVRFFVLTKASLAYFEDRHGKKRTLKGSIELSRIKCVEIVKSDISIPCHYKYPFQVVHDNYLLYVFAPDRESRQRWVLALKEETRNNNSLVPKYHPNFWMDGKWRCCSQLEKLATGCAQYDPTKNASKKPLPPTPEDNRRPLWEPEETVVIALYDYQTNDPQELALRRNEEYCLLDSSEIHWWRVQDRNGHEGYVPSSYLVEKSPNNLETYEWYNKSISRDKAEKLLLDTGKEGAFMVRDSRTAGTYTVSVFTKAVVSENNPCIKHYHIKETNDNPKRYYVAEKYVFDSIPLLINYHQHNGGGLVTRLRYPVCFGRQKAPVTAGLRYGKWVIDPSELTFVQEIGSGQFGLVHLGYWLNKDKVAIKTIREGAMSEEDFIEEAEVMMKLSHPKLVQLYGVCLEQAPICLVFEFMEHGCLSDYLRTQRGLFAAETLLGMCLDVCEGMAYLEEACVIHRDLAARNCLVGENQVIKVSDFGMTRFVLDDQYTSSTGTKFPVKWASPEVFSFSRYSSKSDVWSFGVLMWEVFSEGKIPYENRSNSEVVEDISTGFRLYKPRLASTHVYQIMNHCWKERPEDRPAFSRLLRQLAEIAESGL
PROPERTY NAME: Ki (nM)
Provide only the numeric value, understood in nM.

Look up Ki for this molecule: Cn1cc(C(c2ccccc2)n2cc(NC(=O)c3n[nH]c4c3C3CC3CC4)cn2)cn1 (single isomer, unassigned) [Example 35a]
13

Look up Ki for this molecule: CC1(C)CCc2c(C(=O)Nc3cnn(C(CCC#N)c4cccnc4)c3)n[nH]c2C1 (single isomer, unassigned) [Example 80b]
2

Look up Ki for this molecule: CC(c1ncco1)n1cc(NC(=O)c2n[nH]c3c2CCC(C)(C)C3)cn1 (single isomer, unassigned) [Example 103b]
9
